- assay_target: cynomolgus LIV-1 (cynomolgus, UniProt A0A2K5WH46 30-741)
- Sequence (A0A2K5WH46 entry or part of it): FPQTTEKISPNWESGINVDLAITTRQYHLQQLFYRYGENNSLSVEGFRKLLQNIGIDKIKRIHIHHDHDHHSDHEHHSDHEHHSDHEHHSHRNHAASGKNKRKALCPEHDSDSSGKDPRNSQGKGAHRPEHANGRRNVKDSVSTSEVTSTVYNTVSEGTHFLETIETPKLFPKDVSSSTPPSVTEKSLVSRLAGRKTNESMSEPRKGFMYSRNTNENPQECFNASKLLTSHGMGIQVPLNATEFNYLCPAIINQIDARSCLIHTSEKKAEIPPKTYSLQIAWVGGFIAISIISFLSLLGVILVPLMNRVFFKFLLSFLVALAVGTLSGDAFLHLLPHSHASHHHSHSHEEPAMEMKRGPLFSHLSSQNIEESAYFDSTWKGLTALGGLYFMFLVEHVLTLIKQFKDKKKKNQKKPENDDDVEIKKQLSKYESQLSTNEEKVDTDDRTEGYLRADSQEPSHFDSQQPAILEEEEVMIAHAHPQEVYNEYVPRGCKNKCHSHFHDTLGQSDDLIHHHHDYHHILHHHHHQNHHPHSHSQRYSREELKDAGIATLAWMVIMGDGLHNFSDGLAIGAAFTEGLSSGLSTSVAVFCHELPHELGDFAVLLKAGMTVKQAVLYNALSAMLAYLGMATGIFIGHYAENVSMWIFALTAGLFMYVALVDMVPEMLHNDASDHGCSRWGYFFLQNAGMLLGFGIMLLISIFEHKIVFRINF
- procedure_details: FACS, HEK293/Cyno_LIV-1 cells
Quick list: Top (MFI) per entry.
assay_readout: Top (MFI)

>  <binder>
50H12B3 (antibody, V domains shown, Tested as chimeric antibody) VH: QVQLKQSGPGLVQPSQSLSITCTVSGFSLTSYGVHWVRQSPGKGLEWLGVIWTGGTTDYNAAFKSRLSISKDNSKSQVFFKMNSLQANDTAIYYCARGPSSYWGQGTLVTVSA VL: DIVMTQSQKFMSTSVGDRVSVTCKASQNVDTNVVWYQQKPGQSPKALIHSTSYRYSGVPDRFTGSGSGTDFTLTISNVQSEDLAEYFCQQYNNYPWTFGGGTKLEIK

>  <assay_readout>
Top (MFI)

>  <unit_symbol>
MFI

>  <numeric_value>
35900

$$$$
>  <binder>
248H1G3 (antibody, V domains shown, Tested as chimeric antibody) VH: EVQLQQSGPELMKRGASVKISCKTSTFTFTEFTIHWVKQSHGKSLEWIGGINPNTGGTSYNQNFTGKATLTVDKSSITAYMELRSLTSEDSAIYYCAPNWDGYWFFDVWGAGTTVTVSS VL: DIQMTQSPASLSASVGETVTITCRASGNIQNYLAWYQQKQGKSPQLLVYGAKTLADGVPSRFSGSGSGTQFSLKINSLQPEDFGSYYCQHFWSPPLTFGAGTKLELK

>  <assay_readout>
Top (MFI)

>  <unit_symbol>
MFI

>  <numeric_value>
2700

$$$$
>  <binder>
72B12F1 (antibody, V domains shown, Tested as chimeric antibody) VH: EVQLQQSGAELVKPGASVKLSCTASGFNIKDTYMHWVKQRPEQGLEWIGRIDPANGNTKNDPRFQGKATITADTSSNTAYLQLSRLTSEDTAVYYCAGGGITTVVPDHWGQGTTLTVSS VL: DVVMTQTPLSLPVSLGDQASISCRSSQSLVHSNGNTYLQWYLQKPGQSPKLLIYKVSNRFSGVPDRFSGSGSGTDFTLKISRVEAEDLGVYFCSQSTHVPYTFGGGTKLEIK

>  <assay_readout>
Top (MFI)

>  <unit_symbol>
MFI

>  <numeric_value>
7470

$$$$
